System: T-47D breast
TEST DETAILS: NCI tumour cell line growth inhibition, 48 h; in the data active = GI50 below about 0.43 µM; inactive = the rest
Possible outcomes: active, inactive

STRUCTURE: O=c1[nH]c2ccccc2nc1-c1c[nH]c2ccccc12
GROUP LABEL: inactive
--
STRUCTURE: CCCn1c(C)nc2c1C(=O)c1ccccc1C2=O
GROUP LABEL: inactive
--
STRUCTURE: C[C@@H]1CC[C@H]2C(COCCOCC3=C(C(F)(F)F)O[C@@H]4O[C@@]5(C)CC[C@H]6[C@H](C)CC[C@@H]3[C@@]46OO5)=C(C(F)(F)F)O[C@@H]3O[C@@]4(C)CC[C@@H]1[C@]32OO4
GROUP LABEL: active
--
STRUCTURE: CCN=C1C=CC(=C(c2ccc(N)cc2)c2ccc(N(CC)CC)c(C)c2)C=C1
GROUP LABEL: active
--
STRUCTURE: C[C@]12CC[C@H]3[C@@H](CCC4=CC(=O)CC[C@@H]43)[C@@H]1CC[C@@H]2OC(=O)CCc1ccccc1
GROUP LABEL: inactive
--
STRUCTURE: O=[N+]([O-])c1cccc(-c2nc3sccn3c2-c2ccnc(NCCCNS(=O)(=O)c3cccc(F)c3)n2)c1
GROUP LABEL: active
--
STRUCTURE: N=C(N)c1ccc(N2CCCN(c3ccc(C(=N)N)cc3)CC2)cc1
GROUP LABEL: inactive
--
STRUCTURE: N#C/C(=C\c1c(-c2ccccc2)[nH]c2ccccc12)S(=O)(=O)c1ccccc1
GROUP LABEL: inactive

###

Catalogue of molecules with associated TGI
System: SR leukemia
TEST DETAILS: NCI tumour cell line growth inhibition, 48 h
MEASUREMENT KIND: TGI (µM)

MOLECULE: C/C=C/[P+](c1ccccc1)(c1ccccc1)c1ccccc1
MEASUREMENT KIND: TGI
VALUE OPERATOR: =
VALUE MEASURED: 2.58
//
MOLECULE: CCOc1ccc2nc(NC(=O)c3c/c(=N\NC(=O)C[N+](C)(C)C)c4ccc(O)cc4o3)sc2c1
MEASUREMENT KIND: TGI
VALUE OPERATOR: =
VALUE MEASURED: 17.3
//
MOLECULE: C=CCOC1OC(CO[Si](C)(C)C(C)(C)C)C(OCc2ccccc2)C(OCc2ccccc2)C1OCc1ccccc1 (configuration not stated)
MEASUREMENT KIND: TGI
VALUE OPERATOR: >
VALUE MEASURED: 100
//
MOLECULE: CCCCCCNC(=O)c1cnc(Cl)cn1
MEASUREMENT KIND: TGI
VALUE OPERATOR: =
VALUE MEASURED: 16.6
//
MOLECULE: COc1ccc(NS(=O)CCCc2ccccc2)cc1 (configuration not stated)
MEASUREMENT KIND: TGI
VALUE OPERATOR: >
VALUE MEASURED: 100
//
MOLECULE: COC(=O)c1c2n(c3ccccc13)C[C@H]1OC(C)(C)O[C@@H]21
MEASUREMENT KIND: TGI
VALUE OPERATOR: >
VALUE MEASURED: 100
//
MOLECULE: CNC(=O)OCc1c(COC(=O)NC)c(C)n(-c2ccc(Br)cc2)c1C
MEASUREMENT KIND: TGI
VALUE OPERATOR: >
VALUE MEASURED: 100

###

Tested on: NCI-H460 lung
TEST DETAILS: NCI tumour cell line growth inhibition, 48 h
MEASUREMENT KIND: TGI (µM)

COMPOUND: CCOC(=O)C1Oc2ccc([N+](=O)[O-])c3c2C1(O)CCC3 (stereo unspecified)
MEASUREMENT KIND: TGI
QUANTITY UNIT: µM
VALUE OPERATOR: >
VALUE MEASURED: 100
--
COMPOUND: Cc1ccc(C2=NOC3=c4ccccc4=CSC3=C2c2ccc([N+](=O)[O-])cc2)cc1
MEASUREMENT KIND: TGI
QUANTITY UNIT: µM
VALUE OPERATOR: >
VALUE MEASURED: 100
--
COMPOUND: CC1CC[C@@H](C(C)C)[C@H](Oc2nnc(C3OC(CO)C(O)C3O)o2)C1 (stereo partly specified)
MEASUREMENT KIND: TGI
QUANTITY UNIT: µM
VALUE OPERATOR: >
VALUE MEASURED: 100
--
COMPOUND: CCN=C1C=CC(=C(c2ccc(N)cc2)c2ccc(N(CC)CC)c(C)c2)C=C1
MEASUREMENT KIND: TGI
QUANTITY UNIT: µM
VALUE OPERATOR: =
VALUE MEASURED: 1.18
--
COMPOUND: Cc1cc2c3ccc(C)[n+](C)c3ccc2n1C
MEASUREMENT KIND: TGI
QUANTITY UNIT: µM
VALUE OPERATOR: =
VALUE MEASURED: 28.8
--
COMPOUND: CC(=O)Nc1ccccc1SCCSSCCSc1ccccc1NC(C)=O
MEASUREMENT KIND: TGI
QUANTITY UNIT: µM
VALUE OPERATOR: =
VALUE MEASURED: 68.6

###

System: SF-268 CNS
TEST DETAILS: NCI tumour cell line growth inhibition, 48 h
Catalogue of compounds with associated TGI

COMPOUND: C=CCc1cc(OC)c2c(c1)C(O)CC(c1ccccc1)O2 (stereo unspecified)
TGI: > 100 µM

COMPOUND: COc1ccc(C(OCC2OC(n3ccc(NC(=O)c4ccccc4)nc3=O)C(O)C2O)(c2ccccc2)c2ccccc2)cc1 (stereo unspecified)
TGI: 19.8 µM

COMPOUND: CC12CCC(C(=O)OC1=O)C(C)(C)O2 (stereo unspecified)
TGI: > 100 µM

COMPOUND: CN(C)CCCNC(=O)N/N=C/c1cccc([N+](=O)[O-])c1
TGI: > 100 µM

COMPOUND: CCOC(=O)c1c(N2CCCC2)nsc1Nc1ccccc1
TGI: > 100 µM

COMPOUND: O=C(O)C/C=C/CC(=O)O
TGI: > 100 µM

COMPOUND: c1ccc(SC(CCCCC(Sc2ccccc2)Sc2ccccc2)Sc2ccccc2)cc1
TGI: > 100 µM

COMPOUND: COc1ccc(-c2cc(-c3ccccc3)nc(SCCCC(=O)NO)n2)cc1
TGI: 5.16 µM

COMPOUND: Cc1ccc(S(=O)(=O)NCCSCCNS(=O)(=O)c2ccc(C)cc2)cc1
TGI: > 100 µM

COMPOUND: CC1=NN(c2ccccc2)C(=O)/C1=C/c1ccc(O)cc1
TGI: > 100 µM

COMPOUND: C=CCOC(=O)/C(=C\c1ccc(OC)c(OC)c1)c1ccc(OC)c(OC)c1
TGI: > 100 µM

COMPOUND: CSc1nc(N)c(NC2OC(CO)C(O)C2O)c(=O)[nH]1 (stereo unspecified)
TGI: > 100 µM

COMPOUND: CCCCCCNC(=O)c1cnc(Cl)cn1
TGI: 31.4 µM

COMPOUND: NC(=O)NN=C(CS)CS
TGI: > 79.9 µM

COMPOUND: CN1CCCCC1CCN1CCCCC1 (stereo unspecified)
TGI: > 100 µM

COMPOUND: O=C(NNC1=NCCN1)c1ccco1
TGI: > 100 µM

COMPOUND: O=C(c1ccccc1)c1ccc(COc2ccc(C(c3c(O)c4ccccc4oc3=O)c3c(O)c4ccccc4oc3=O)cc2)cc1
TGI: > 100 µM

COMPOUND: Fc1ccc2nc3n(c2c1)C(c1c(F)cccc1F)SC3 (stereo unspecified)
TGI: > 100 µM

COMPOUND: COc1ccc(OC)c(NC(=O)CCC/C(CC(=O)c2ccc(O)c(OC)c2)=N\NC(=O)C[N+](C)(C)C)c1
TGI: > 100 µM

COMPOUND: COC(=O)C1CC2(CCC1=O)Cc1ccccc1C2=O (stereo unspecified)
TGI: > 100 µM

COMPOUND: CCOC1(COP(=O)(OCc2ccccc2)OCc2ccccc2)COC(COP(=O)(OCc2ccccc2)OCc2ccccc2)(OCC)CO1 (stereo unspecified)
TGI: > 100 µM

###

Test system: SK-MEL-28 melanoma
TEST DETAILS: NCI tumour cell line growth inhibition, 48 h
MEASUREMENT KIND: TGI

COMPOUND: N#Cc1c(N/N=C/c2c(Cl)cccc2Cl)nc(N)nc1N1CCOCC1
VALUE MEASURED: > 100 µM
--
COMPOUND: COc1ccc(-c2n[nH]nc2-c2cc(OC)c3c(c2OC)OCO3)cc1
VALUE MEASURED: > 100 µM
--
COMPOUND: Fc1ccc2nc3n(c2c1)C(c1c(F)cccc1F)SC3 (stereo not given)
VALUE MEASURED: > 100 µM
--
COMPOUND: CCC1(CC)CC(=NNS(=O)(=O)c2ccc(C)cc2)C1
VALUE MEASURED: > 100 µM
--
COMPOUND: Cc1ccc(-c2cc(-c3ccc(C)cc3)nc(NCCNc3ccnc4cc(Cl)ccc34)n2)cc1
VALUE MEASURED: 3.38 µM
--
COMPOUND: Cc1ccc(N2C(=O)C3c4[nH]c5ccccc5c4C4CCC(C(C)(C)C)CC4C3C2=O)cc1 (stereo not given)
VALUE MEASURED: 49 µM
--
COMPOUND: N#CC(C(=O)CCC(=O)Nc1cccc(Cl)c1)c1ccccc1 (stereo not given)
VALUE MEASURED: > 100 µM
--
COMPOUND: CC(=O)C1=CSC2[C@H](NC(=O)Cc3ccccc3)C(=O)N2C1C(=O)OC(c1ccccc1)c1ccccc1 (stereo not given in full)
VALUE MEASURED: > 100 µM
--
COMPOUND: CC12Nc3ccccc3N1C(=O)c1ccccc12 (stereo not given)
VALUE MEASURED: > 100 µM
--
COMPOUND: CN(C(=O)Cc1cc(Cl)c(Cl)cc1N=C=S)[C@H]1CCCC[C@@H]1N1CCCC1
VALUE MEASURED: 7.65 µM
